These entries and their values trace back to paper PMC6010098.

// values below are reported melting point

Guide cases for melting point, answers given:
[[record]]
molecule = "O=C(O)c1cc(C=Cc2ccc(OC3CCCC3)cc2)nc2ccc(Br)cc12 [12a]"
observed_value = "> 300 °C"

[[record]]
molecule = "O=C(O)c1cc(C=Cc2ccc(OC3CCCC3)cc2)nc2ccc(F)cc12 [12b]"
observed_value = "> 300 °C"

[[record]]
molecule = "Cc1ccc(-c2cc(-c3ccc(OC4CCCC4)cc3)c(C#N)c(=O)[nH]2)cc1"
observed_value = "278 to 280 °C"

[[record]]
molecule = "Cc1ccc(C2=NNC(c3ccc(OC4CCCC4)cc3)C2)cc1 (stereo not drawn)"
observed_value = "145 to 146 °C"


Entry under test: Cc1ccc(C2=NOC(c3ccc(OC4CCCC4)cc3)C2)cc1 (stereo not drawn) . Its melting point was 120 to 122 °C

Short answer for Cc1ccc(-c2cc(-c3ccc(OC4CCCC4)cc3)c(C#N)c(N)n2)cc1 : melting point was 272 to 273 °C
